Data credit: the OligoGym collection

conditions: siRNA; further: test system not given here
HELM strings list units from the 5' end as sugar, base in round brackets, then linkage (d deoxyribose, r ribose, m 2'-O-methyl, p phosphodiester). Strings are as the collection lists them, not checked against the first reports. ss, as = sense and antisense strand; [una] = unlocked nucleic acid; [fl2r] = 2'-fluoro
Please respond with reported target mRNA knockdown for every item in the list.
I only need the number, in %, no unit after it.

What does the record list as target mRNA knockdown for RNA1{m(U)p.r(A)p.r(A)p.r(A)p.r(C)p.r(U)p.r(U)p.r(U)p.r(G)p.r(G)p.r(G)p.r(G)p.r(A)p.r(A)p.r(G)p.r(G)p.r(G)p.r(A)p.r(G)p.r(T)p.r(T)}|RNA2{r(C)p.r(U)p.r(C)p.m(C)p.r(C)p.r(U)p.r(U)p.r(C)p.r(C)p.r(C)p.r(C)p.r(A)p.r(A)p.r(A)p.r(G)p.r(U)p.r(U)p.r(U)p.r(A)p.r(T)p.r(T)}$$$RNA1{StrandType:ss}|RNA2{StrandType:as}$ ? 72

What does the record list as target mRNA knockdown for RNA1{r(G)p.r(U)p.r(A)p.r(U)p.r(G)p.r(A)p.r(C)p.r(C)p.r(G)p.r(A)p.r(C)p.r(U)p.r(A)p.r(C)p.r(G)p.r(C)p.r(G)p.r(U)p.r(A)p.r(T)p.r(T)}|RNA2{r(U)p.r(U)p.r(C)p.r(A)p.r(G)p.r(U)p.r(G)p.[una](U)p.r(G)p.r(A)p.r(U)p.r(G)p.r(A)p.r(C)p.r(A)p.r(C)p.r(U)p.r(U)p.r(G)p.r(T)p.r(T)}$$$RNA1{StrandType:ss}|RNA2{StrandType:as}$ ? 90

What does the record list as target mRNA knockdown for RNA1{r(C)p.[fl2r](C)p.r(A)p.r(G)p.r(C)p.r(G)p.r(A)p.r(G)p.r(C)p.r(C)p.[fl2r](C)p.r(A)p.r(A)p.r(A)p.r(A)p.[fl2r](G)p.r(A)p.r(A)p.r(A)p.r(T)p.r(T)}|RNA2{r(U)p.r(U)p.r(U)p.r(C)p.r(U)p.r(U)p.r(U)p.[fl2r](U)p.r(G)p.r(G)p.r(G)p.r(C)p.r(U)p.r(C)p.r(G)p.r(C)p.[fl2r](U)p.r(G)p.r(G)p.r(T)p.r(T)}$$$RNA1{StrandType:ss}|RNA2{StrandType:as}$ ? 82

What does the record list as target mRNA knockdown for RNA1{r(A)p.r(A)p.r(C)p.r(C)p.r(C)p.r(A)p.r(C)p.r(C)p.r(A)p.r(C)p.r(A)p.r(G)p.r(C)p.m(U)p.m(A)p.r(G)p.r(A)p.r(A)p.r(C)p.m(U)p.m(U)}|RNA2{r(A)p.r(A)p.r(G)p.m(U)p.m(U)p.r(C)p.m(U)p.m(A)p.r(G)p.r(C)p.m(U)p.r(G)p.m(U)p.r(G)p.r(G)p.m(U)p.r(G)p.r(G)p.r(G)p.m(U)p.m(U)}$$$RNA1{StrandType:ss}|RNA2{StrandType:as}$ ? 24

What does the record list as target mRNA knockdown for RNA1{r(U)p.r(U)p.r(U)p.r(C)p.r(C)p.r(C)p.r(C)p.r(C)p.r(A)p.r(G)p.r(G)p.[fl2r](U)p.r(A)p.r(A)p.r(C)p.r(G)p.r(A)p.r(U)p.r(U)p.r(T)p.r(T)}|RNA2{r(A)p.r(A)p.r(U)p.r(C)p.r(G)p.r(U)p.[fl2r](U)p.r(A)p.r(C)p.r(C)p.r(U)p.r(G)p.r(G)p.r(G)p.r(G)p.r(G)p.r(A)p.r(A)p.r(A)p.r(T)p.r(T)}$$$RNA1{StrandType:ss}|RNA2{StrandType:as}$ ? 75

###

settings: siRNA
HELM strings list units from the 5' end as sugar, base in round brackets, then linkage (d deoxyribose, r ribose, m 2'-O-methyl, p phosphodiester). Strings are as the collection lists them, not checked against the first reports. ss, as = sense and antisense strand; [lna] = locked nucleic acid (LNA); [fl2r] = 2'-fluoro
Measured Metric: target mRNA knockdown (%)
I only need the number, in %, no unit after it.

What does the record list as target mRNA knockdown for RNA1{[fl2r](G)p.m(A)p.[fl2r](C)p.m(G)p.[fl2r](U)p.m(A)p.[fl2r](A)p.m(A)p.[fl2r](C)p.m(G)p.[fl2r](G)p.m(C)p.[fl2r](C)p.m(A)p.[fl2r](C)p.m(A)p.[fl2r](A)p.m(G)p.[fl2r](U)p.m(U)p.[fl2r](C)}|RNA2{r(A)p.r(C)p.[lna](T)p.r(U)p.r(G)p.[lna](T)p.r(G)p.r(G)p.r(C)p.r(C)p.r(G)p.r(U)p.r(U)p.[lna](T)p.r(A)p.r(C)p.r(G)p.[lna](T)p.r(C)p.[lna](G)p.[lna](C)}$$$RNA1{StrandType:ss}|RNA2{StrandType:as}$ ? 1.5

What does the record list as target mRNA knockdown for RNA1{r(U)p.m(U)p.m(A)p.r(A)p.r(A)p.r(G)p.m(G)p.r(G)p.r(C)p.r(G)p.r(A)p.r(G)p.r(A)p.r(A)p.r(G)p.r(A)p.r(C)p.r(C)p.r(G)p.r(T)p.r(T)}|RNA2{r(C)p.r(G)p.r(G)p.r(U)p.r(C)p.r(U)p.r(U)p.r(C)p.r(U)p.r(C)p.r(G)p.r(C)p.r(C)p.r(C)p.r(U)p.r(U)p.m(U)p.r(A)p.r(A)p.r(T)p.r(T)}$$$RNA1{StrandType:ss}|RNA2{StrandType:as}$ ? 85

###

Please respond with reported target mRNA knockdown for every item in the list.
conditions: siRNA
HELM strings list units from the 5' end as sugar, base in round brackets, then linkage (d deoxyribose, r ribose, m 2'-O-methyl, p phosphodiester). Strings are as the collection lists them, not checked against the first reports. ss, as = sense and antisense strand; [lna] = locked nucleic acid (LNA); [fl2r] = 2'-fluoro
# answer = value followed by unit

What does the record list as target mRNA knockdown for RNA1{r(C)p.r(U)p.r(U)p.r(A)p.r(C)p.r(G)p.r(C)p.r(U)p.r(G)p.r(A)p.r(G)p.r(U)p.r(A)p.r(C)p.r(U)p.r(U)p.r(C)p.r(G)p.r(A)p.r(T)p.r(T)}|RNA2{r(U)p.[lna](C)p.r(G)p.r(A)p.r(A)p.r(G)p.r(U)p.r(A)p.r(C)p.r(U)p.r(C)p.r(A)p.r(G)p.r(C)p.r(G)p.r(U)p.r(A)p.r(A)p.r(G)p.r(T)p.r(T)}$$$RNA1{StrandType:ss}|RNA2{StrandType:as}$ ? 0%

What does the record list as target mRNA knockdown for RNA1{r(G)p.r(G)p.r(A)p.r(G)p.r(C)p.r(A)p.r(C)p.r(G)p.r(C)p.r(U)p.m(U)p.r(A)p.r(C)p.m(U)p.r(A)p.r(C)p.r(C)p.r(U)p.r(U)p.r(T)p.r(T)}|RNA2{r(A)p.r(A)p.r(G)p.r(G)p.m(U)p.r(A)p.r(G)p.m(U)p.r(A)p.r(A)p.r(G)p.r(C)p.r(G)p.r(U)p.r(G)p.r(C)p.r(U)p.r(C)p.r(C)p.r(T)p.r(T)}$$$RNA1{StrandType:ss}|RNA2{StrandType:as}$ ? 69%

What does the record list as target mRNA knockdown for RNA1{[fl2r](C)p.r(C)p.[fl2r](C)p.r(U)p.[fl2r](C)p.r(C)p.[fl2r](C)p.r(C)p.[fl2r](U)p.r(G)p.[fl2r](U)p.r(C)p.[fl2r](C)p.r(C)p.[fl2r](C)p.r(G)p.[fl2r](C)p.r(U)p.[fl2r](U)p.r(T)p.r(T)}|RNA2{[fl2r](A)p.[fl2r](A)p.r(G)p.r(C)p.r(G)p.r(G)p.r(G)p.r(G)p.[fl2r](A)p.r(C)p.[fl2r](A)p.r(G)p.r(G)p.r(G)p.r(G)p.[fl2r](A)p.r(G)p.r(G)p.r(G)p.r(T)p.r(T)}$$$RNA1{StrandType:ss}|RNA2{StrandType:as}$ ? 41%

What does the record list as target mRNA knockdown for RNA1{m(G)p.r(A)p.m(A)p.r(G)p.m(A)p.r(G)p.m(C)p.r(C)p.m(U)p.r(A)p.m(C)p.r(A)p.m(C)p.r(A)p.m(A)p.r(C)p.m(C)p.r(C)p.m(U)p.r(T)p.r(T)}|RNA2{r(A)p.m(G)p.m(G)p.m(G)p.r(U)p.r(U)p.m(G)p.r(U)p.m(G)p.r(U)p.r(A)p.m(G)p.m(G)p.r(C)p.r(U)p.r(C)p.r(U)p.r(U)p.r(C)p.r(T)p.r(T)}$$$RNA1{StrandType:ss}|RNA2{StrandType:as}$ ? 43%

What does the record list as target mRNA knockdown for RNA1{r(G)p.r(A)p.r(G)p.r(G)p.r(A)p.r(U)p.r(G)p.r(G)p.r(A)p.r(U)p.r(U)p.r(C)p.r(G)p.r(A)p.r(C)p.r(U)p.r(U)p.r(A)p.r(G)p.r(T)p.r(T)}|RNA2{r(C)p.m(U)p.r(A)p.r(A)p.r(G)p.r(U)p.r(C)p.r(G)p.r(A)p.r(A)p.r(U)p.r(C)p.r(C)p.r(A)p.r(U)p.r(C)p.r(C)p.r(U)p.r(C)p.r(T)p.r(T)}$$$RNA1{StrandType:ss}|RNA2{StrandType:as}$ ? 94%
